src = paper PMC6178183

Assay: Stability of analytes in rat plasma QC samples under storage conditions
Format: in vitro ADME
Settings: rat plasma, n=6; low QC: spiked 20 ng/mL glycyrrhizic acid; 10 liquiritin; 2 emodin, gallic acid, ononin, schisandrin, stilbene glycoside; 1 isoliquiritigenin, liquiritigenin, rhein, verbascoside
VALUE KIND: Measured Concentration, three freeze-thaw cycles (ng/mL)

MOLECULE	MEASURED NUMBER
OC[C@H]1O[C@@H](Oc2c(O)cc(O)cc2/C=C/c2ccc(O)cc2)[C@H](O)[C@@H](O)[C@@H]1O [stilbene glycoside]	2.00
O=C(/C=C/c1ccc(O)cc1)c1ccc(O)cc1O	0.89
COc1cc2c(c(OC)c1OC)-c1c(cc(OC)c(OC)c1OC)C[C@](C)(O)[C@@H](C)C2	1.71
Cc1cc(O)c2c(c1)C(=O)c1cc(O)cc(O)c1C2=O	2.00
O=C(O)c1cc(O)c2c(c1)C(=O)c1cccc(O)c1C2=O	0.98
COc1ccc(-c2coc3cc(O[C@@H]4O[C@H](CO)[C@@H](O)[C@H](O)[C@H]4O)ccc3c2=O)cc1	1.85
C[C@@H]1O[C@@H](O[C@@H]2[C@@H](O)[C@H](OCCc3ccc(O)c(O)c3)O[C@H](CO)[C@H]2OC(=O)/C=C/c2ccc(O)c(O)c2)[C@H](O)[C@H](O)[C@H]1O [verbascoside]	1.09

* * *

Experiment: Stability of analytes in rat plasma QC samples under storage conditions
Assay type: in vitro ADME
Settings: rat plasma, n=6; medium QC: spiked 200 ng/mL glycyrrhizic acid; 100 liquiritin; 20 emodin, gallic acid, ononin, schisandrin, stilbene glycoside; 10 isoliquiritigenin, liquiritigenin, rhein, verbascoside
VALUE KIND: Measured Concentration, three freeze-thaw cycles (ng/mL)

MOLECULE	MEASURED NUMBER
C[C@@H]1O[C@@H](O[C@@H]2[C@@H](O)[C@H](OCCc3ccc(O)c(O)c3)O[C@H](CO)[C@H]2OC(=O)/C=C/c2ccc(O)c(O)c2)[C@H](O)[C@H](O)[C@H]1O [verbascoside]	10.17
Cc1cc(O)c2c(c1)C(=O)c1cc(O)cc(O)c1C2=O [emodin]	19.21
COc1ccc(-c2coc3cc(O[C@@H]4O[C@H](CO)[C@@H](O)[C@H](O)[C@H]4O)ccc3c2=O)cc1 [ononin]	18.71
O=C(/C=C/c1ccc(O)cc1)c1ccc(O)cc1O [isoliquiritigenin]	8.69

* * *

Recorded Measured Concentration, -70°C for 14 days, one value per entry.
Test: Stability of analytes in rat plasma QC samples under storage conditions
Assay type: in vitro ADME
Details: rat plasma, n=6; high QC: spiked 2000 ng/mL glycyrrhizic acid; 1000 liquiritin; 200 emodin, gallic acid, ononin, schisandrin, stilbene glycoside; 100 isoliquiritigenin, liquiritigenin, rhein, verbascoside
VALUE KIND: Measured Concentration, -70°C for 14 days (ng/mL)

                                   compound  measured_number
0  COc1cc2c(c(OC)c1OC)-c1c(cc(OC)c(OC)c1OC)C[C@](C)(O)[C@@H](C)C2 [schisandrin]           183.83
1  O=C(O)c1cc(O)c2c(c1)C(=O)c1cccc(O)c1C2=O [rhein]            85.95
2  COc1ccc(-c2coc3cc(O[C@@H]4O[C@H](CO)[C@@H](O)[C@H](O)[C@H]4O)ccc3c2=O)cc1 [ononin]           200.23
3  O=C1C[C@@H](c2ccc(O)cc2)Oc2cc(O)ccc21 [liquiritigenin]            91.88
4  Cc1cc(O)c2c(c1)C(=O)c1cc(O)cc(O)c1C2=O [emodin]           185.45
